Molecular target: Cellular tumor antigen p53 (Homo sapiens)
Assay: TOX21_p53_BLA_p4_ratio: Tox21 HCT-116 p53 Agonism Beta-lactamase Assay, Ratio, Phase 4 (AID 2283601)
Results filed as inconclusive are left out. Active and inactive are the calls of the source. How the source made its calls: active means hit-call score of the fitted dose curve at least 0.9, where 1 is the maximum; inconclusive means response in the unintended direction; inactive means score below 0.9.
Entry note: the call must match one of true (active), false (inactive)

Q: Hi, sorry to bother you, what did the test record for `O=C(Oc1ccccc1)c1ccccc1C(=O)Oc1ccccc1` ?
A: false

Q: Query: recorded result category for `CC(C)(C)C1CCC(=O)CC1` in this test
A: false

Q: Please indicate how the test categorized `Nc1ccc(C(=O)O)cc1` .
A: false

Q: Look up the recorded call for `CC(C)C(=O)OCCOc1ccccc1` in this test.
A: false

Q: Status in this test for `O=C(OCCc1ccccc1)c1ccccc1` ?
A: false

Q: For this compound, state the assay outcome: `N#CC1(N)CCCCC1`
A: false

Q: Lab log entry: `Cc1ccc(S(=O)(=O)N=C=O)cc1` — outcome as called in the assay?
A: false

Q: Would you mind telling me which call this test gave `CCCCCCCCCCCCc1ccc(O)cc1` ?
A: true

Q: Per the assay record, what outcome was assigned to `CCCc1ccc(O)c(OC)c1` ?
A: false

Q: Give the logged outcome of this assay for the following compound: `COc1ccc(-c2coc3cc(O)cc(O)c3c2=O)cc1`
A: false

Q: Entry `CCCCOCCOCCOC(C)=O` : call = ?
A: false

Q: Hello, I am checking results. What call was entered for `O=C(O[C@@H]1Cc2c(O)cc(O)cc2O[C@@H]1c1cc(O)c(O)c(O)c1)c1cc(O)c(O)c(O)c1` ?
A: false

Q: Just curious, what result did O=C(O)C1CCC(C(=O)O)CC1 (configuration not stated) get here?
A: true

Q: Which result was noted for this compound in the test: `CC(=O)C(C)C`
A: false

Q: // outcome(item) with item = `CC(C)OC(=O)c1ccccc1`
A: false

Q: I would be grateful if you could indicate the recorded call for `CC1(C)[C@@H]2CC[C@@]1(C)C(=O)C2` .
A: false

Q: Hi, sorry to bother you, what did the test record for `CO[Si](CCCS)(OC)OC` ?
A: false

Q: Hi team, can someone confirm the assay call for `CC=C(C)C=CC=C(C)C` ?
A: false

Q: # fetch the recorded call for `CC(CCC(=O)O)(c1ccc(O)cc1)c1ccc(O)cc1` here
A: false

Q: Hey, what did the test say about CCCCC1CCC(=O)O1 (configuration not stated) ?
A: false

Q: Test call for this compound, please: `O=C(O)CCCC(=O)O`
A: false

Q: # fetch the recorded call for `OCCCc1ccccc1` here
A: false

Q: Please let me know the test result on file for `C=CC(=O)OCCCCCCOC(=O)C=C` .
A: false

Q: Just curious, what result did `Nc1ccnc(=O)[nH]1` get here?
A: false

Q: Could you please tell me the result logged for `Cc1ccc([N+](=O)[O-])cc1N` in this assay?
A: false

Q: Just curious, what result did `CC/C=C\CCOC(=O)c1ccccc1O` get here?
A: false

Q: Dear all, I need the recorded test outcome for `CCCCC1C(=O)N(c2ccccc2)N(c2ccccc2)C1=O` , thank you.
A: false

Q: In this assay, the call recorded for `C[Si]1(C)O[Si](C)(C)O[Si](C)(C)O[Si](C)(C)O[Si](C)(C)O1` was what?
A: false

Q: Look up the recorded call for `CCCCC/C=C\C/C=C\CCCCCCCC(=O)O` in this test.
A: false

Q: Outcome? `Clc1cc(Cl)c(Cl)c(Cl)c1Cl`
A: false

Q: Per the assay record, what outcome was assigned to CCC1COC(=O)O1 (configuration not stated) ?
A: false

Q: Hi, sorry to bother you, what did the test record for `CCCCCCCCCCCCCC(=O)OC(C)C` ?
A: false

Q: Could you please tell me the result logged for `CCCCCCCCCCCC(C)=O` in this assay?
A: false

Q: Recorded test outcome, item `C=CC(=O)OCCCCCCCCCC`
A: false

Q: For `C=C(C)OC(C)=O` , which call appears in the assay record?
A: false

Q: Kindly provide the recorded test outcome for the following compound: `c1ccc2c(c1)[nH]c1ccccc12`
A: false

Q: Hi team, can someone confirm the assay call for `C=C[C@@]1(C)CC(=O)[C@]2(O)[C@@]3(C)[C@@H](O)CCC(C)(C)[C@@H]3[C@H](O)[C@H](OC(C)=O)[C@@]2(C)O1` ?
A: false

Q: Outcome? `O=C1CCCCCCCCCCC1`
A: false

Q: Please let me know the test result on file for `Oc1ccc(/C=C/c2cc(O)cc(O)c2)cc1` .
A: false

Q: Which outcome was entered for the compound `Oc1ccc(-c2ccccc2)c(Cl)c1` in this test?
A: true

Q: Hi team, can someone confirm the assay call for `CC(C)=CCCC(C)=CC#N` ?
A: false

Q: Called result for `CCCCC(=O)O`
A: false

Q: Which outcome did this test record for the compound `CC(C)c1ccc(O)c(C(C)C)c1` ?
A: true

Q: Which outcome was entered for the compound N#Cc1ccc(C2CCCc3cncn32)cc1 (configuration not stated) in this test?
A: false

Q: Outcome? `O=C(O)c1cc(O)c2ccccc2c1O`
A: false

Q: Call for entry `Cc1noc(NS(=O)(=O)c2ccc(N)cc2)c1C` :
A: false

Q: How did this test come out for `O=C(O)/C=C/c1ccccc1` ?
A: false

Q: Would you mind telling me which call this test gave `NC(=O)Nc1ccccc1` ?
A: false

Q: Write down the call the test reported for this compound. Item: `CCCCCCCC(=O)OCC(COC(=O)CCCCCCC)OC(=O)CCCCCCC`
A: false

Q: For CC1=NN(c2ccc(S(=O)(=O)O)cc2)C(=O)C1N=Nc1ccccc1 (configuration not stated) , what call appears in the results of this test?
A: false

Q: Hi, sorry to bother you, what did the test record for `CCCCCCC=O` ?
A: false

Q: I'd appreciate the recorded outcome for `CC(=O)OC/C=C(/C)CCC=C(C)C` from this test.
A: false

Q: Call for entry `C=C1C[C@H]2[C@@H]3C=C(C)C4=CC(=O)CC[C@]4(C)[C@H]3CC[C@]2(C)[C@@]1(OC(C)=O)C(C)=O` :
A: false

Q: Answer briefly: the call reported for `C=CC(=O)OCCCCCCCC(C)C` in this assay.
A: false

Q: What did the test return for `O=C(C=Cc1ccccc1)OCCc1ccccc1` ?
A: false

Q: // param item: CC1=CC(C)C(C=O)CC1 (configuration not stated) ; yields the recorded call
A: false

Q: Test call for this compound, please: `CCC[Si](OC)(OC)OC`
A: false
